System: HeLa S3 cells
protocol_description: Test for growth inhibition of HeLa S3 cells
Type: cell-based
test_parameters: Homo sapiens, HeLa S3, 72 h, HeLa S3 cells, 72 hours with test compound, Cell Proliferation Kit II; read-out: Cell growth inhibition (IC50)
Give measured IC50 for each item. Keep answers brief.
Answers are plain numbers, in µM.

These recorded examples may help you get a feel for the data.
// IC50 value for OCCCN(CCSc1ccc(O)cc1)CCSc1ccc(O)cc1 : 3.56

Measured IC50, OC[C@@H]1OC(N(CCSc2ccc(O)cc2)CCSc2ccc(O)cc2)[C@@H](O)[C@H](O)[C@H]1O (some centres unmarked) : 11.5

Value of measured IC50 for the entry CC(=O)N(CCSc1ccc(O)cc1)CCSc1ccc(O)cc1 : 4.63

Entry CC(=O)CN(CCSc1ccc(O)cc1)CCSc1ccc(O)cc1 ; IC50 = 1.23

More entries:
So, O=C(N(CCSc1ccc(O)cc1)CCSc1ccc(O)cc1)N1CCCc2ccccc21 ? Its IC50 was 14.4
